The molecules below have reported IC50 for DNA topoisomerase 2-alpha (Homo sapiens).

| given.smiles | IC50 |
| --- | --- |
| CNc1cc(F)cc2c(O)c(C(=O)Nc3ccc(C(=O)NS(=O)(=O)N(C)C)cc3)c(=O)[nH]c12 | 20.9 µM |

I'm hoping you can list IC50 for every molecule here, please.
1. CCCCCN(CCCCC)Cc1cc(C(=O)O)ccc1NC(=O)c1cc2cc(F)cc(NC)c2[nH]c1=O
2. CNc1cc(F)cc2cc(C(=O)Nc3ccc(C(=O)O)cc3CN(CCO)C3CCCCC3)c(=O)[nH]c12.Cl
3. CNc1cc(F)cc2c(O)c(C(=O)Nc3ccc(C(=O)O)cc3)c(=O)[nH]c12

Solution:
["> 100 µM", "> 100 µM", "> 100 µM"]

For this molecule ( `CNc1cc(F)cc2cc(C(=O)Nc3ccc(CO)cc3CN(CCO)C3CCCCC3)c(=O)[nH]c12` ), measured IC50 is > 100 µM
